B1: Zinc finger homeobox protein 3, residues 2244 to 2299; numbered along this chain, Q15911 (parent)
chain: SSRTRFTDYQLRVLQDFFDANAYPKDDEFEQLSNLLNLPTRVIVVWFQNARQKARK

- Variants of: B1
- test: abundance fitness (aPCA) (normalised: wild type 0, dead -1); higher = more abundant; growth selection in yeast, the domain comes from the species named
- condition info: Homo sapiens
For each entry below, report its abundance fitness value.

Tell me measured abundance fitness for `K25C` please.
-0.184

Tell me measured abundance fitness for `L36F` please.
-0.659

Tell me measured abundance fitness for `D27V` please.
-0.215

Tell me measured abundance fitness for `R5I` please.
0.323

Tell me measured abundance fitness for `L36G` please.
-0.929

Tell me measured abundance fitness for `R3D` please.
0.505

Tell me measured abundance fitness for `D19Q` please.
-0.263

Tell me measured abundance fitness for `D8A` please.
-0.123

Tell me measured abundance fitness for `D16R` please.
-0.035

Tell me measured abundance fitness for `D26H` please.
-0.683

Tell me measured abundance fitness for `S2M` please.
0.321

Tell me measured abundance fitness for `L32R` please.
-0.856

Tell me measured abundance fitness for `N21G` please.
-0.378

Tell me measured abundance fitness for `F17K` please.
0.011

Tell me measured abundance fitness for `D26G` please.
-0.247

Tell me measured abundance fitness for `L14A` please.
-0.668

Tell me measured abundance fitness for `K25V` please.
-0.115

Tell me measured abundance fitness for `L35V` please.
0.041

Tell me measured abundance fitness for `L11K` please.
-0.146

Tell me measured abundance fitness for `R5L` please.
0.197

Tell me measured abundance fitness for `N37K` please.
-0.009

Tell me measured abundance fitness for `N37T` please.
-0.179
